Ref: ChEMBL document CHEMBL1139875

System: Rattus norvegicus
Test: Antihyperalgesic effects in Sprague-Dawley rat CCI model assessed as duration of paw withdrawal at 100 mg/kg, ip after 1 hr
Assay type: functional
Settings: route intraperitoneal
Documented Activity across a set of compounds
Report the figure in s without appending any unit label.

Take a look at these entries with their results.
> print(dat)
                               compound         systemname   val
1  CN(C)c1ccc(/C=N/NC(=O)NCCCC(=O)O)cc1  Rattus norvegicus  13.1
2   C/C(=N\NC(=O)NCCCC(=O)O)c1cccc(N)c1  Rattus norvegicus   9.6

Exercise: Give the reported value of Activity for this record: O=C(O)CCCNC(=O)N/N=C/c1ccccc1O
Solution: 7.7

Exercise: Identify Activity associated with the compound Nc1nnc(-c2cccc(Cl)c2Cl)c(N)n1 [LAMOTRIGINE]
Solution: 36.7

Exercise: Give the reported Activity for this compound. O=C(O)CCCNC(=O)N/N=C(\c1ccccc1)c1ccc(Br)cc1
Solution: 8.5

Exercise: Please give measured Activity of the following entry: NC(=O)N1c2ccccc2C=Cc2ccccc21 [CARBAMAZEPINE]
Solution: 15.7

----------
Tested on: Rattus norvegicus
Experiment: Antihyperalgesic effects in Sprague-Dawley rat SNL model assessed as duration of paw withdrawal at 100 mg/kg, ip after 2 hrs, ip
Assay type: functional
Details: route intraperitoneal
We begin with a simple list: items and their reported Activity.
Express your answer in s, writing the number without its unit.

// below: answered compounds
> print(dat)
                                   compound         systemname  propertylabel   val
1         O=C(O)CCCNC(=O)N/N=C/c1ccc(Cl)cc1  Rattus norvegicus       Activity   5.6
2          NCC1(CC(=O)O)CCCCC1 [GABAPENTIN]  Rattus norvegicus       Activity   9.9
3      CN(C)c1ccc(/C=N/NC(=O)NCCCC(=O)O)cc1  Rattus norvegicus       Activity   4.4
4                O=C(O)CCCNC(=O)NN=C1CCCCC1  Rattus norvegicus       Activity  11.3
5  Nc1nnc(-c2cccc(Cl)c2Cl)c(N)n1 [LAMOTRIGINE]  Rattus norvegicus       Activity   6.4

Exercise: Fill in Activity for record C/C(=N\NC(=O)NCCCC(=O)O)c1cccc(N)c1
Solution: 19.5

Exercise: Respond only with Activity recorded for O=C(O)CCCNC(=O)N/N=C1\C(=O)Nc2ccccc21
Solution: 19.7

Exercise: Please give the documented Activity of C/C(=N\NC(=O)NCCCC(=O)O)c1ccccc1
Solution: 16.7

Exercise: Tell us which Activity value is on record for O=C(O)CCCNC(=O)NN=C1CCCC1
Solution: 9.6

Exercise: Please indicate Activity recorded for O=C(O)CCCNC(=O)NN=C(c1ccccc1)c1ccccc1
Solution: 13.7

Exercise: Give recorded Activity. NC(=O)N1c2ccccc2C=Cc2ccccc21 [CARBAMAZEPINE]
Solution: 5.5

----------
System: Mus musculus
Test: Anticonvulsant activity in Swiss Albino mouse at 300 mg/kg, ip after 0.5 hr by scPTZ test
Assay type: functional, organism-based
Design: dose 300 mg/kg
Active and inactive are the calls of the source. The rule behind the calls is not given here.
# output must be one of active, inactive

Example cases with answers are listed next.
> print(dat)
                              compound     class
1  C/C(=N\NC(=O)NCCCC(=O)O)c1ccc(C)cc1    active
2    O=C1NC(=O)C(c2ccccc2)(c2ccccc2)N1  inactive
3    O=C(O)CCCNC(=O)N/N=C/c1ccc(Cl)cc1  inactive

Exercise: Please indicate how the test categorized O=C(O)CCCNC(=O)N/N=C(\c1ccccc1)c1ccc(Br)cc1 .
Solution: inactive

Exercise: Hey, what did the test say about O=C(O)CCCNC(=O)N/N=C1\C(=O)Nc2ccccc21 ?
Solution: active

Exercise: Which outcome did this test record for the compound CC(=O)Oc1ccccc1C(=O)O [ASPIRIN] ?
Solution: inactive
